Target: human mGluR5 (Homo sapiens, UniProt P41594)
Sequence (P41594 21-1180 isoform P41594-2 limits assumed): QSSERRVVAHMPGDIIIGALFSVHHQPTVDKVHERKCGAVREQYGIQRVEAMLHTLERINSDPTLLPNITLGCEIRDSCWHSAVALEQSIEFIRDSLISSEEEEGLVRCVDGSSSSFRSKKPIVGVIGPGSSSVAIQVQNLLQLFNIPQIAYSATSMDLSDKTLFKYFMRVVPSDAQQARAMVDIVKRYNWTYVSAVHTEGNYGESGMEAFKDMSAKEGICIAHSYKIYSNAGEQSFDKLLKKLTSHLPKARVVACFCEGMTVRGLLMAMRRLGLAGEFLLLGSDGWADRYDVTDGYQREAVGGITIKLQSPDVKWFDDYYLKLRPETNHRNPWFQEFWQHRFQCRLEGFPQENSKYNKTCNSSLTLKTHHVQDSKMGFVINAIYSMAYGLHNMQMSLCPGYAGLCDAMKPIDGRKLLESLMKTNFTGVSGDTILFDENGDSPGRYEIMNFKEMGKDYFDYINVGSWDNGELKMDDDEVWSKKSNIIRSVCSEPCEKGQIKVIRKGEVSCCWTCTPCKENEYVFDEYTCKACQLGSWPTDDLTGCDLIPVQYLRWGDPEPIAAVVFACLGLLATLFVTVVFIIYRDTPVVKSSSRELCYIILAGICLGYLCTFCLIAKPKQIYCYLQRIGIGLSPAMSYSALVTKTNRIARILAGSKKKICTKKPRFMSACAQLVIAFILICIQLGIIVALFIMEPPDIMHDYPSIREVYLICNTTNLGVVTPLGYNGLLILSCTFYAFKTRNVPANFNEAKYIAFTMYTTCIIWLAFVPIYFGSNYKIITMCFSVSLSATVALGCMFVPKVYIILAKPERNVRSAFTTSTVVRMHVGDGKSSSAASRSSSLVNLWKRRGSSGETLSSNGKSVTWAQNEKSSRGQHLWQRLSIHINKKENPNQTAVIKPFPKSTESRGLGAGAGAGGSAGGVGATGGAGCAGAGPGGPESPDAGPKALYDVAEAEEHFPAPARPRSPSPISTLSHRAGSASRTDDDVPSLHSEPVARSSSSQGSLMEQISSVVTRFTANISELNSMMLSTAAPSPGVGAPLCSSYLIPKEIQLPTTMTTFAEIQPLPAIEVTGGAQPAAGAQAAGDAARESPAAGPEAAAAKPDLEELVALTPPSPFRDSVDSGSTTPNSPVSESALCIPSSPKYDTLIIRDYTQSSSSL
Assay: Cell-based functional Ca2+ mobilization assay, potentiation of glutamate EC20 response (H10H cell-line)
Settings: H10H cell-line expressing recombinant human mGluR5; potentiation in presence of glutamate EC20
1 means recorded pEC50 is 6 or above; 0 means it is below 6.

Record excerpt, results attached:
{"smiles.code": "COc1ccc(C(=O)N2CCc3nc(COc4ccccc4)oc3C2)s1", "qualitative.label": 1}
{"smiles.code": "O=C(c1cnc2ccccc2n1)N1CCc2nc(COc3ccccc3)oc2C1", "qualitative.label": 0}
{"smiles.code": "COCC(=O)N1CCc2nc(COc3ccccc3)oc2C1", "qualitative.label": 0}
{"smiles.code": "O=C(c1cnn[nH]1)N1CCc2nc(COc3ccccc3)oc2C1", "qualitative.label": 0}

Ask: Is pEC50 at least 6? Consider Cc1cccc(C(=O)N2CCc3nc(COc4ccccc4)oc3C2)n1
Result: 0

Ask: Could you verify whether the entry O=C(c1cnc(C(F)(F)F)nc1)N1CCc2nc(COc3ccccc3)oc2C1 shows pEC50 of no less than 6?
Result: 0

Ask: Quick check, pEC50 >= 6? N#Cc1ccc(C(=O)N2CCc3nc(COc4ccccc4)oc3C2)cc1F
Result: 0

Ask: Evaluate O=C(c1ccc(Cl)o1)N1CCc2nc(COc3ccccc3)oc2C1 : pEC50 at minimum 6?
Result: 1

----------
Target: human mGluR5 (Homo sapiens, UniProt P41594)
Experiment: Cell-based functional Ca2+ mobilization assay, potentiation of glutamate EC20 response (H10H cell-line)
Details: H10H cell-line expressing recombinant human mGluR5; in presence of glutamate EC20; normalized to maximal glutamate response
Emax (%) strictly less than 50% = YES. Otherwise NO.

Look over these answered cases.
{"molecule": "N#Cc1cc(F)cc(C(=O)N2CCc3nc(COc4ccccc4)oc3C2)c1 [Example B50]", "qualitative.label": "NO"}
{"molecule": "O=C(c1ncccn1)N1CCc2nc(COc3ccccc3)oc2C1 [Example B160]", "qualitative.label": "YES"}
{"molecule": "O=C(c1cnccn1)N1CCc2nc(COc3ccccc3)oc2C1 [Example B148]", "qualitative.label": "YES"}

Ask: is_below(Emax (%), 50%) for O=C(OCc1ccccc1)N1CCc2nc(COc3ccccc3)oc2C1 [Example B20] ?
Result: NO

Ask: Is it true that Emax (%) reported for N#Cc1cc(Br)cc(OCc2nc3c(o2)CN(C(=O)c2ccc(F)cc2)CC3)c1 [Example B137] is less than 50%?
Result: YES

Ask: I'd appreciate it if you could check whether O=C(C1CCc2cc(F)ccc2O1)N1CCc2nc(COc3ccccc3)oc2C1 (stereo not shown) [Example B82] has Emax (%) smaller than 50%.
Result: NO

Ask: Just wondering, is Emax (%) of O=C(c1cnc(C(F)(F)F)nc1)N1CCc2nc(COc3ccccc3)oc2C1 [Example B118] below 50%?
Result: YES

Ask: Consider the molecule N#Cc1cc(F)cc(OCc2nc3c(o2)CN(C(=O)c2ccc(F)cc2)CC3)c1 [Example B136] . Is its Emax (%) strictly less than 50%?
Result: YES

Ask: Is 50% strictly greater than the molecule's reported Emax (%)? molecule: O=C(c1ccccn1)N1CCc2nc(COc3ccccc3)oc2C1 [Example B23]
Result: NO

Ask: Answer whether the molecule O=C(c1ccc2nccnc2c1)N1CCc2nc(COc3ccccc3)oc2C1 [Example B91] has Emax (%) strictly less than 50%
Result: NO

Ask: Check if Emax (%) falls below 50% for O=C(c1ccc(F)cc1)N1Cc2nc(COc3ccccc3)oc2C1 [Example B21] .
Result: NO
